These data points were gathered from the supplement of paper PMC10981050.

- Tested on: OCI-AML2;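 also: after 48 h exposure read by CellTiter-Glo luminescence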
- assay info: cell viability relative to vehicle control; higher = less cytotoxic
- condition context: 10 µM; SRSF2 genotype: wt/wt
Structures can show the parent of a compound that is named as a salt.

>  <compound>
CC(=O)NS(=O)(=O)c1ccc(N)cc1 [Sulfacetamide Sodium]

>  <unit>
%

>  <cell viability>
96.6

$$$$
>  <compound>
CN1CCN(Cc2ccc(NC(=O)Nc3ccc(Oc4ccnc(N)n4)cc3)cc2C(F)(F)F)CC1

>  <unit>
%

>  <cell viability>
10.3

$$$$
>  <compound>
O=C(O)[C@@]1(CCCCCCOc2ccc(Cl)cc2)CO1 [Etomoxir (Na salt)]

>  <unit>
%

>  <cell viability>
96.8

$$$$
>  <compound>
N#C[C@@H]1CCCN1C(=O)CNC12CC3CC(CC(O)(C3)C1)C2

>  <unit>
%

>  <cell viability>
87.7

$$$$
>  <compound>
O=C(O)c1cc(C(=O)O)c(C(=O)N(Cc2cccc(Oc3ccccc3)c2)[C@H]2CCCc3ccccc32)cc1C(=O)O

>  <unit>
%

>  <cell viability>
105

$$$$
>  <compound>
CN1CCN(c2nc(C3=C(c4c[nH]c5ccccc45)C(=O)NC3=O)c3ccccc3n2)CC1

>  <unit>
%

>  <cell viability>
50.3

$$$$
>  <compound>
CC(C)c1noc(N2CCC(COc3ccc(-c4ccc(S(C)(=O)=O)cc4)nc3)CC2)n1

>  <unit>
%

>  <cell viability>
36.8

$$$$
>  <compound>
O=C1CC(c2ccc(O)cc2)Oc2cc(O)ccc21 (stereo not drawn)

>  <unit>
%

>  <cell viability>
99.3

$$$$
>  <compound>
O=c1cc(-c2ccccc2)oc2cc(O)cc(O)c12

>  <unit>
%

>  <cell viability>
75.3

$$$$
>  <compound>
CNC(CC(=O)O)C(=O)O (stereo not drawn)

>  <unit>
%

>  <cell viability>
107

$$$$
>  <compound>
Cc1c(NC(=O)OC[C@@H]2COCCN2)cn2ncnc(Nc3ccc4c(cnn4Cc4cccc(F)c4)c3)c12

>  <unit>
%

>  <cell viability>
64.8

$$$$
>  <compound>
CC(C)NC(=O)COc1cccc(-c2nc(Nc3ccc4[nH]ncc4c3)c3ccccc3n2)c1

>  <unit>
%

>  <cell viability>
87.8

$$$$
>  <compound>
COc1ccnc(C[S+]([O-])c2nc3cc(OC(F)F)ccc3[nH]2)c1OC (stereo not drawn) [Pantoprazole (Protonix)]

>  <unit>
%

>  <cell viability>
96.5

$$$$
>  <compound>
Nc1nc(CC(=O)Nc2ccc(CCNC[C@H](O)c3ccccc3)cc2)cs1

>  <unit>
%

>  <cell viability>
93.1

$$$$
>  <compound>
C[N+](C)(C)CC(O)CC(=O)[O-] (racemic) [DL-Carnitine hydrochloride]

>  <unit>
%

>  <cell viability>
101

$$$$
>  <compound>
CCOC(=O)[C@H](CCc1ccccc1)N[C@@H](C)C(=O)N(CC(=O)O)C1Cc2ccccc2C1 [Delapril Hydrochloride]

>  <unit>
%

>  <cell viability>
91.6

$$$$
>  <compound>
Cc1cc(C)nc(SCC(=O)Nc2ncc(Cc3cccc4ccccc34)s2)n1

>  <unit>
%

>  <cell viability>
66.4

$$$$
>  <compound>
CCc1cc2c(cc1N1CCC(N3CCOCC3)CC1)C(C)(C)c1[nH]c3cc(C#N)ccc3c1C2=O

>  <unit>
%

>  <cell viability>
52.2

$$$$
